Origin of the recorded values: patent US11325892B2

- Tested on: SNU449 HCC cells
- Assay Text: SNU449 cell proliferation (cellular DNA, Hoechst)
- Type: cell-based
- Assay Context: Homo sapiens, SNU-449; SNU449; read-out: IC50 (dose at which 50% of cell proliferation is inhibited)
- Experimental: SNU449 HCC cells were plated at 20,000 cells/well in 12-well plates. The next day, cells were treated with SSI-4, sorafenib or sorafenib plus SSI-4 at the indicated doses. […] On day 5, cells were frozen, DNA isolated and quantitated by […] (Hoechst reagent) in a spectrophotometer. Cellular DNA is directly proportional to cell number and is commonly used as a measure of cell number. All doses are in replicates of three with the mean +/−standard deviation determined.
Attribute Measured: pIC50
Answers are plain numbers, as −log10 of the molar value.

Consider the compound "CNC(=O)c1ccnc(NC(=O)N2CCC(Oc3ccccc3Cl)CC2)c1" and give its measured pIC50.
8.49
